Could you please report measured EC50 for the items listed next?
SUBJECT OF TEST: Gal4-RORγ-LBD (Homo sapiens, UniProt P51449)
Construct: expressed in transfected cells
Sequence (P51449 269-508 limits assumed): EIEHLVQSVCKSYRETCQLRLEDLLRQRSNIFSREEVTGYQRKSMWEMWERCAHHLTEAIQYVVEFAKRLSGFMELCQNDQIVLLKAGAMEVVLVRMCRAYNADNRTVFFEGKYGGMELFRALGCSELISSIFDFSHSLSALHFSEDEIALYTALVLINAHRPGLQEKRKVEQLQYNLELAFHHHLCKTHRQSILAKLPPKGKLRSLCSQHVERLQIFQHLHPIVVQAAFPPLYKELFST
ASSAY NAME: Gal4-RORγ Luciferase Reporter Assay in HEK-293T Cells
Type: cell-based
CONDITION CONTEXT: HEK-293 cells, luciferase reporter, with ursolic acid

Challenge: Given the entry O=C(O)CC[C@H]1CN(S(=O)(=O)c2cccc(C(F)(F)F)c2)c2cc(/C=C3\CCc4ccccc43)ccc2O1 [Example 38C] , report its measured EC50.
Response given: 500 to 5000 nM

Challenge: Entry under review: C/C(=C\c1ccc2c(c1)N(S(=O)(=O)c1ccc(F)c(C3CC3)c1)C[C@H](CCC(=O)O)O2)c1c(F)cccc1Cl [Example 86C] . Reported EC50?
Response given: < 500 nM

Challenge: Data request, read-out EC50, for CCOc1nn(CC)cc1S(=O)(=O)N1C[C@H](CCC(=O)O)Oc2ccc(/C=C/c3c(Cl)cccc3C(F)(F)F)cc21 [Example 89DO]
Response given: < 500 nM

Challenge: State the recorded EC50 for this entry: CC(C)c1ccccc1/C=C/c1ccc2c(c1)N(S(=O)(=O)c1cccc(C(F)(F)F)c1)C[C@H](CCC(=O)O)O2 [Example 89CB]
Response given: 500 to 5000 nM

Challenge: Request the reported EC50 associated with CCOc1nn(CC)cc1S(=O)(=O)N1C[C@H](CCC(=O)O)Oc2ccc(/C=C/c3c(Cl)cccc3C(C)(F)F)cc21 [Example 89FE]
Response given: < 500 nM

Challenge: Quick one: EC50 of CCOc1nn(CC)cc1S(=O)(=O)N1C[C@H](CCC(=O)O)Oc2ccc(/C=C/c3ccccc3SC)cc21 [Example 89AU] ?
Response given: < 500 nM

Challenge: Recorded EC50 for C/C(=C\c1cc2c(cc1F)O[C@@H](CCC(=O)O)CN2S(=O)(=O)c1cccc(C(F)(F)F)c1)c1c(F)cccc1Cl [Example 42] , please?
Response given: 500 to 5000 nM
